Attribute: MIC
Tested on: Salmonella enterica ATCC 14028

{"chemical_structure": "O=C(O)c1cn(C2CC2)c2cc(N3CCNCC3)c(F)cc2c1=O", "MIC": "0.031 µg/mL"}
{"chemical_structure": "CCN1CCN(C(=O)N[C@@H](C(=O)N[C@@H]2C(=O)N3[C@@H]2SC(C)(C)[C@@H]3C(=O)O)c2ccccc2)C(=O)C1=O", "MIC": "2.4 µg/mL"}
{"chemical_structure": "CO/N=C(\\C(=O)N[C@@H]1C(=O)N2C(C(=O)O)=C(COC(C)=O)CS[C@H]12)c1csc(N)n1", "MIC": "0.21 µg/mL"}
{"chemical_structure": "C[C@H]1COc2c(N3CCN(C)CC3)c(F)cc3c(=O)c(C(=O)O)cn1c23", "MIC": "0.062 µg/mL"}

* * *

Entries with their measured MIC, system Shigella flexneri ATCC 12022:

{"chemical_structure": "C[C@H]1COc2c(N3CCN(C)CC3)c(F)cc3c(=O)c(C(=O)O)cn1c23", "MIC (mg/L)": 0.063}
{"chemical_structure": "CCN1CCN(C(=O)N[C@@H](C(=O)N[C@@H]2C(=O)N3[C@@H]2SC(C)(C)[C@@H]3C(=O)O)c2ccccc2)C(=O)C1=O", "MIC (mg/L)": 1}
{"chemical_structure": "O=C(O)c1cn(C2CC2)c2cc(N3CCNCC3)c(F)cc2c1=O", "MIC (mg/L)": 0.031}
{"chemical_structure": "CO/N=C(\\C(=O)N[C@@H]1C(=O)N2C(C(=O)O)=C(COC(C)=O)CS[C@H]12)c1csc(N)n1", "MIC (mg/L)": 0.063}

* * *

Test: Solubility in phosphate buffers
Format: physicochemical
Settings: phosphate buffer, aqueous buffer, read-out: solubility limit
parameter_measured: solubility

{"compound": "CC1(C)Cc2c(C#N)c(SCCc3ccccc3)nc(N3CCOCC3)c2CO1 [MBX2319]", "result": "15 to 20 µM"}

* * *

Test system: Escherichia coli AB1157
Assay: MIC assay (microbroth dilution) ± 25 μM EPI
Type: cell-based
Settings: E. coli AB1157 (WT); + 25 μM PAβN; geometric mean
Procedure: • Strains and Reagents. […] MIC assays were performed in triplicate and the geometric mean was calculated. […] Viability was monitored over 2-4 hours by making serial dilutions in saline and spotting 5 μl of each dilution onto the surface of an LB agar plate in triplicate. Colonies were counted after the plates were incubated at 37° C. for 16-18 hr, colony forming units (CFU) per ml were calculated, and the average and standard deviation for the three replicates was determined. […]
Attribute: MICs (μg/ml) ± EPIs: PAβN
parameter_measured: MICs (μg/ml) ± EPIs: PAβN (µg/mL)

{"molecule": "O=C(N[C@H](CO)[C@H](O)c1ccc([N+](=O)[O-])cc1)C(Cl)Cl", "unit_spec": "µg/mL", "quantitative_result": 2}
{"molecule": "CC1(C)S[C@@H]2[C@H](NC(=O)[C@H](N)c3ccc(O)cc3)C(=O)N2[C@H]1C(=O)O", "unit_spec": "µg/mL", "quantitative_result": 4}
{"molecule": "Cc1onc(-c2ccccc2Cl)c1C(=O)N[C@@H]1C(=O)N2[C@@H]1SC(C)(C)[C@@H]2C(=O)O", "unit_spec": "µg/mL", "quantitative_result": 64}
{"molecule": "CO/N=C(\\C(=O)N[C@@H]1C(=O)N2C(C(=O)O)=C(COC(C)=O)CS[C@H]12)c1csc(N)n1", "unit_spec": "µg/mL", "quantitative_result": 0.25}
{"molecule": "CCn1cc(C(=O)O)c(=O)c2ccc(C)nc21", "unit_spec": "µg/mL", "quantitative_result": 1}
{"molecule": "CCn1cc(C(=O)O)c(=O)c2cc(F)c(N3CCNCC3)cc21", "unit_spec": "µg/mL", "quantitative_result": 0.063}
{"molecule": "O=C(O)c1cn(C2CC2)c2cc(N3CCNCC3)c(F)cc2c1=O", "unit_spec": "µg/mL", "quantitative_result": 0.031}
{"molecule": "CC1=C(C(=O)O)N2C(=O)[C@@H](NC(=O)[C@H](N)c3ccccc3)[C@H]2SC1", "unit_spec": "µg/mL", "quantitative_result": 16}
{"molecule": "CC[n+]1c(-c2ccccc2)c2cc(N)ccc2c2ccc(N)cc21 [Ethidium Br, Ethidium Bromide]", "unit_spec": "µg/mL", "quantitative_result": 16}
{"molecule": "Oc1cc(Cl)ccc1Oc1ccc(Cl)cc1Cl", "unit_spec": "µg/mL", "quantitative_result": 0.031}
{"molecule": "CN(C)c1ccc(C(=C2C=CC(=[N+](C)C)C=C2)c2ccc(N(C)C)cc2)cc1", "unit_spec": "µg/mL", "quantitative_result": 1}

* * *

Test system: Escherichia coli 331
Test: MIC assay (microbroth dilution) ± 25 μM EPI
Type: cell-based
Conditions: E. coli 331; + 25 μM MBX2319
Attribute: MIC (μg/ml) ± EPI: MBX2319
parameter_measured: MIC (μg/ml) ± EPI: MBX2319 (µg/mL)

{"chemical_structure": "C[C@H]1COc2c(N3CCN(C)CC3)c(F)cc3c(=O)c(C(=O)O)cn1c23", "tested_system": "Escherichia coli 331", "parameter_measured": "MIC (μg/ml) ± EPI: MBX2319", "quantitative_result": 11.3}
{"chemical_structure": "O=C(O)c1cn(C2CC2)c2cc(N3CCNCC3)c(F)cc2c1=O", "tested_system": "Escherichia coli 331", "parameter_measured": "MIC (μg/ml) ± EPI: MBX2319", "quantitative_result": 32}
{"chemical_structure": "CO/N=C(\\C(=O)N[C@@H]1C(=O)N2C(C(=O)O)=C(COC(C)=O)CS[C@H]12)c1csc(N)n1", "tested_system": "Escherichia coli 331", "parameter_measured": "MIC (μg/ml) ± EPI: MBX2319", "quantitative_result": 0.031}
{"chemical_structure": "CCN1CCN(C(=O)N[C@@H](C(=O)N[C@@H]2C(=O)N3[C@@H]2SC(C)(C)[C@@H]3C(=O)O)c2ccccc2)C(=O)C1=O", "tested_system": "Escherichia coli 331", "parameter_measured": "MIC (μg/ml) ± EPI: MBX2319", "quantitative_result": 0.707}

* * *

Attribute: MIC Ratio MBX2319
Test system: Escherichia coli AB1157
Assay: MIC assay (microbroth dilution) ± 25 μM EPI
Type: cell-based
Conditions: E. coli AB1157; MIC no cmpd/MIC + 25 μM MBX2319

{"compound": "CCn1cc(C(=O)O)c(=O)c2cc(F)c(N3CCNCC3)cc21 [Norfloxacin]", "tested_system": "Escherichia coli AB1157", "MIC Ratio MBX2319": 1}
{"compound": "O=C(N[C@H](CO)[C@H](O)c1ccc([N+](=O)[O-])cc1)C(Cl)Cl [Cloramphenicol]", "tested_system": "Escherichia coli AB1157", "MIC Ratio MBX2319": 4}
{"compound": "Oc1cc(Cl)ccc1Oc1ccc(Cl)cc1Cl [Irgasan]", "tested_system": "Escherichia coli AB1157", "MIC Ratio MBX2319": 2}
{"compound": "Cc1onc(-c2ccccc2Cl)c1C(=O)N[C@@H]1C(=O)N2[C@@H]1SC(C)(C)[C@@H]2C(=O)O [Cloxacillin]", "tested_system": "Escherichia coli AB1157", "MIC Ratio MBX2319": 2}
{"compound": "CN(C)c1ccc(C(=C2C=CC(=[N+](C)C)C=C2)c2ccc(N(C)C)cc2)cc1 [Crystal violet]", "tested_system": "Escherichia coli AB1157", "MIC Ratio MBX2319": 2}
{"compound": "CC1=C(C(=O)O)N2C(=O)[C@@H](NC(=O)[C@H](N)c3ccccc3)[C@H]2SC1 [Cephalexin]", "tested_system": "Escherichia coli AB1157", "MIC Ratio MBX2319": 2}
{"compound": "CC[n+]1c(-c2ccccc2)c2cc(N)ccc2c2ccc(N)cc21 [Ethidium Br, Ethidium Bromide]", "tested_system": "Escherichia coli AB1157", "MIC Ratio MBX2319": 1}
{"compound": "CCn1cc(C(=O)O)c(=O)c2ccc(C)nc21 [Nalidixic acid]", "tested_system": "Escherichia coli AB1157", "MIC Ratio MBX2319": 2}
{"compound": "CC1(C)S[C@@H]2[C@H](NC(=O)[C@H](N)c3ccc(O)cc3)C(=O)N2[C@H]1C(=O)O [Amoxacillin]", "tested_system": "Escherichia coli AB1157", "MIC Ratio MBX2319": 1}

* * *

Attribute: MIC
Test system: P. aeruginosa ATCC 27853
Assay: MIC assay (microbroth dilution) ± 25 μM EPI
Format: cell-based, Pseudomonas aeruginosa
Details: Pseudomonas aeruginosa, ATCC27853, no EPI, read-out: MIC (μg/ml) ± EPI: None
parameter_measured: MIC (µg/mL)

{"compound": "C[C@H]1COc2c(N3CCN(C)CC3)c(F)cc3c(=O)c(C(=O)O)cn1c23 [Levofloxacin]", "unit_spec": "µg/mL", "quantitative_result": 1}
{"compound": "CO/N=C(\\C(=O)N[C@@H]1C(=O)N2C(C(=O)O)=C(COC(C)=O)CS[C@H]12)c1csc(N)n1 [CEF, cefotaxime]", "unit_spec": "µg/mL", "quantitative_result": 53.8}
{"compound": "CCN1CCN(C(=O)N[C@@H](C(=O)N[C@@H]2C(=O)N3[C@@H]2SC(C)(C)[C@@H]3C(=O)O)c2ccccc2)C(=O)C1=O [Piperacillin, piperacillin]", "unit_spec": "µg/mL", "quantitative_result": 16}
{"compound": "O=C(O)c1cn(C2CC2)c2cc(N3CCNCC3)c(F)cc2c1=O [Ciprofloxacin]", "unit_spec": "µg/mL", "quantitative_result": 0.21}

Each recorded value in this set is attributed to patent US9540389B2.
